# Target Under Test: E. coli DNA primase (Escherichia coli)
# Sequence (P0ABS5 whole entry): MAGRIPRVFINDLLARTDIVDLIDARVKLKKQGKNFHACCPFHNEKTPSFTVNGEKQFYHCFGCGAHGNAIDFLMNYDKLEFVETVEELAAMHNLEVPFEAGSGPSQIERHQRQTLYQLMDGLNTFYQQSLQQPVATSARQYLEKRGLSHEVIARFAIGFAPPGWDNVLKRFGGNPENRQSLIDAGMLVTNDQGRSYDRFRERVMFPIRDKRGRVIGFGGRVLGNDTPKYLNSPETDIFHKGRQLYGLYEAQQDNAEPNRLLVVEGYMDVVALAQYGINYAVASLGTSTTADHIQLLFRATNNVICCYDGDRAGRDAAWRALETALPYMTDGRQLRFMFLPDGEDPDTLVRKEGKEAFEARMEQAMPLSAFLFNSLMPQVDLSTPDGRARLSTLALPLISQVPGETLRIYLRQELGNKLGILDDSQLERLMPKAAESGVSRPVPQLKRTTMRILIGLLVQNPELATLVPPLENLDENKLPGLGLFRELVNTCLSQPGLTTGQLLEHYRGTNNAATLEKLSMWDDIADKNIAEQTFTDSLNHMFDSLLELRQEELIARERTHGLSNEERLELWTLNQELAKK
# Test Protocol: Fluorescence-based E. coli DNA primase HTS assay in the presence of helicase (SYBR Green II)
# Test Context: HTS conditions, 200 μM ATP and 200 μM GTP; IC50 dependent on ATP concentration (competes with ATP); read-out: IC50 of inhibition of primase activity
# Procedure: The reaction was carried out on a Costar 384-well black plate. The reaction volume was 30 μl. The final concentrations in the reaction were 50 mM Tris-HCl, pH 7.5, 10 mM Mg(OAc)2, 10 mM DTT, 25 mM potassium glutamate, 0.003% Brij-35, 200 nM DNA, 25 nM helicase, 75 nM E. coli DNA primase, 200 μM ATP and 200 μM GTP. […] Then 25 μl of a 30×SYBR Green II solution with 1.2 M NaCl was added and the fluorescence was measured (excitation at 485 nm, emission at 535 nm). […]

[
  {
    "Given Smiles": "Nc1ncnc2c1ncn2[C@H]1CC[C@@H](COP(=O)(O)OP(=O)(O)OP(=O)(O)O)O1",
    "Value Unit": "µM",
    "IC50": 10
  }
]

Data provenance: patent US20070092879A1
